# target.desc: human serum albumin (HSA) (Homo sapiens, UniProt P02768)
# Sequence (P02768 25-609): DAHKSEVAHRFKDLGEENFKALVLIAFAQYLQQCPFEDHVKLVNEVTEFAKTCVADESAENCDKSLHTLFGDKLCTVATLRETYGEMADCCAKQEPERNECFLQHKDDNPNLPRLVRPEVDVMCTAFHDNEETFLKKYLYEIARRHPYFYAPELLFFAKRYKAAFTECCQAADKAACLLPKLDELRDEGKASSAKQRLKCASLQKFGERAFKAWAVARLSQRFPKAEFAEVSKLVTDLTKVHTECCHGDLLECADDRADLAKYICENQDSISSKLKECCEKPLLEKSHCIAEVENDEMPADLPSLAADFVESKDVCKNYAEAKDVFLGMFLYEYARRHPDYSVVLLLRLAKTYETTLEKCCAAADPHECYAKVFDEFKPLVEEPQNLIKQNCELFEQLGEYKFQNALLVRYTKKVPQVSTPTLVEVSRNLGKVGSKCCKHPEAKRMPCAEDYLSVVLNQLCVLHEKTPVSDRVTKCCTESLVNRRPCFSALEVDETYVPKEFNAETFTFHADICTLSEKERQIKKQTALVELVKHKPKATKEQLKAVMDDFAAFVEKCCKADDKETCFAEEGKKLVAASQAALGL
# run.description: Fluorescence emission spectrum (quenching) of HSA with carbamate pesticides
# Assay type: binding
# experimental.conditions: 296 K, pH 7.4
The molecules listed here are annotated with their n (number of binding sites).
measured.parameter: n (number of binding sites)

>>> numeric_value("CNC(=O)Oc1cc(C)cc(C(C)C)c1")
0.645
>>> numeric_value("CNC(=O)ON=C(C)SC")
0.661
>>> numeric_value("CCSCc1ccccc1OC(=O)NC")
0.613
>>> numeric_value("CNC(=O)Oc1cc(C)cc(C)c1 [XMC, 3,5-xylyl methylcarbamate]")
0.734
>>> numeric_value("CNC(=O)Oc1cccc(C)c1")
0.564
>>> numeric_value("CNC(=O)Oc1ccccc1C(C)C")
0.669
>>> numeric_value("CNC(=O)Oc1ccc(N(C)C)c(C)c1")
0.649
>>> numeric_value("CNC(=O)ON=C(CSC)C(C)(C)C")
0.714
>>> numeric_value("CNC(=O)O/N=C(\\C)C(C)S(C)(=O)=O (centres unmarked)")
0.658
>>> numeric_value("CNC(=O)O/N=C(\\SC)C(=O)N(C)C")
0.774
>>> numeric_value("CNC(=O)O/N=C(\\CS(C)(=O)=O)C(C)(C)C")
0.719
>>> numeric_value("CNC(=O)Oc1cccc2c1OC(C)(C)C2")
0.797
>>> numeric_value("CNC(=O)O/N=C(\\C[S+](C)[O-])C(C)(C)C (centres unmarked) [Thiofanox-sulfoxide]")
0.707
>>> numeric_value("CNC(=O)Oc1ccccc1OC(C)C")
0.706

----------
# target.desc: human serum albumin (HSA) (Homo sapiens)
# run.description: Fluorescence emission spectrum (quenching) of HSA with carbamate pesticides
# Format: binding
# experimental.conditions: 303 K, pH 7.4
# Method: the mixed solution to be tested was preheated at […] for 3 minutes, and the emission spectrum of HSA with carbamate pesticides was measured at 300-500 nm . […] The internal filtering effect of fluorescence signal was corrected according to the following formula: Fcor=Fobsexp[(Aex+Aem)/2] […] in the formula, F0 and F are fluorescence signals […] quencher, respectively. […] In this part, the binding sites and binding constants between carbamate pesticides and HSA were calculated. […]
As shown below, each of these compounds has a reported Ksv value.
measured.parameter: Ksv

>>> result("CNC(=O)Oc1ccccc1C(C)C [Isoprocarb, isoprocarb]")
"2.758 ± 0.048 10^4 M^−1"
>>> result("CNC(=O)O/N=C(\\CS(C)(=O)=O)C(C)(C)C [Thiofanox-sulfone, thiofanox sulfone]")
"4.102 ± 0.034 10^4 M^−1"
>>> result("CNC(=O)Oc1ccccc1OC(C)C [Propoxur, propoxur]")
"4.353 ± 0.121 10^4 M^−1"
>>> result("CNC(=O)Oc1cccc2c1OC(C)(C)C2 [Carbofuran, carbofuran]")
"7.239 ± 0.082 10^4 M^−1"
>>> result("CCSCc1ccccc1OC(=O)NC [Ethiofencarb, ethiofencarb]")
"3.301 ± 0.074 10^4 M^−1"

----------
# target.desc: human serum albumin (HSA) (Homo sapiens)
# run.description: Fluorescence emission spectrum (quenching) of HSA with carbamate pesticides
# Type: binding
# experimental.conditions: Ka (binding constant), 303 K, pH 7.4
measured.parameter: Kd

>>> result("CNC(=O)Oc1ccccc1C(C)C [Isoprocarb, isoprocarb]")
"1300 µM"
>>> result("CNC(=O)Oc1cccc2c1OC(C)(C)C2 [Carbofuran, carbofuran]")
"107 µM"
>>> result("CNC(=O)Oc1cc(C)cc(C(C)C)c1 [Promecarb, promecarb]")
"822 µM"
>>> result("CNC(=O)Oc1ccccc1OC(C)C [Propoxur, propoxur]")
"527 µM"
>>> result("CNC(=O)Oc1cccc(C)c1 [Metolcarb, metolcarb]")
"2950 µM"
>>> result("CCSCc1ccccc1OC(=O)NC [Ethiofencarb, ethiofencarb]")
"1710 µM"
>>> result("CNC(=O)ON=C(CSC)C(C)(C)C [Thiofanox, thiofanox]")
"496 µM"

----------
A collection of molecules and their measured Kd
# target.desc: human serum albumin (HSA) (Homo sapiens, UniProt P02768)
# run.description: Fluorescence emission spectrum (quenching) of HSA with carbamate pesticides
# Format: binding
# experimental.conditions: 296 K, pH 7.4; read-out: Ka (binding constant)
measured.parameter: Kd (µM)

>>> numeric_value("CNC(=O)O/N=C(\\C)C(C)S(C)(=O)=O (centres unmarked)")
1720
>>> numeric_value("CNC(=O)Oc1cc(C)cc(C)c1 [XMC, 3,5-xylyl methylcarbamate]")
539
>>> numeric_value("CNC(=O)ON=C(C)SC")
1460
>>> numeric_value("CNC(=O)Oc1ccc(N(C)C)c(C)c1")
1760
>>> numeric_value("CNC(=O)O/N=C(\\SC)C(=O)N(C)C")
255

----------
Known n (number of binding sites) of a selection of compounds
# target.desc: human serum albumin (HSA) (Homo sapiens)
# run.description: Fluorescence emission spectrum (quenching) of HSA with carbamate pesticides
# Format: binding
# experimental.conditions: 310 K, pH 7.4
measured.parameter: n (number of binding sites)

>>> numeric_value("CNC(=O)Oc1cc(C)cc(C(C)C)c1")
0.769
>>> numeric_value("CNC(=O)O/N=C(\\CS(C)(=O)=O)C(C)(C)C")
0.848
>>> numeric_value("CNC(=O)Oc1cccc2c1OC(C)(C)C2")
0.862
>>> numeric_value("CNC(=O)Oc1ccccc1C(C)C")
0.712

----------
# target.desc: human serum albumin (HSA) (Homo sapiens)
# run.description: Fluorescence emission spectrum (quenching) of HSA with carbamate pesticides
# Format: binding
# experimental.conditions: 296 K
measured.parameter: ΔG^0 (kcal/mol)

>>> numeric_value("CNC(=O)O/N=C(\\C[S+](C)[O-])C(C)(C)C (centres unmarked) [Thiofanox-sulfoxide]")
-4.1427
>>> numeric_value("CCSCc1ccccc1OC(=O)NC")
-3.4355
>>> numeric_value("CNC(=O)ON=C(C)SC")
-3.8554
>>> numeric_value("CNC(=O)Oc1cccc2c1OC(C)(C)C2")
-5.0459
>>> numeric_value("CNC(=O)Oc1ccccc1C(C)C")
-3.6472
>>> numeric_value("CNC(=O)Oc1ccc(N(C)C)c(C)c1")
-3.7173
>>> numeric_value("CNC(=O)O/N=C(\\C)C(C)S(C)(=O)=O (centres unmarked)")
-3.7366
>>> numeric_value("CNC(=O)Oc1cccc(C)c1")
-3.1766
>>> numeric_value("CNC(=O)O/N=C(\\SC)C(=O)N(C)C")
-4.8592
>>> numeric_value("CNC(=O)Oc1cc(C)cc(C(C)C)c1")
-3.5213
>>> numeric_value("CNC(=O)O/N=C(\\CS(C)(=O)=O)C(C)(C)C")
-4.3031
>>> numeric_value("CNC(=O)ON=C(CSC)C(C)(C)C")
-4.2899
>>> numeric_value("CNC(=O)Oc1ccccc1OC(C)C")
-4.1912
>>> numeric_value("CNC(=O)Oc1cc(C)cc(C)c1 [XMC, 3,5-xylyl methylcarbamate]")
-4.4097

----------
Listed next: entries and their corresponding Kq.
# target.desc: human serum albumin (HSA) (Homo sapiens)
# run.description: Fluorescence emission spectrum (quenching) of HSA with carbamate pesticides
# Assay type: binding
# experimental.conditions: 303 K, pH 7.4
measured.parameter: Kq

>>> result("CNC(=O)ON=C(CSC)C(C)(C)C")
"4.728 ± 0.064 10^12 M^−1s^−1"
>>> result("CNC(=O)O/N=C(\\SC)C(=O)N(C)C")
"5.735 ± 0.073 10^12 M^−1s^−1"
>>> result("CNC(=O)Oc1cc(C)cc(C(C)C)c1")
"3.705 ± 0.060 10^12 M^−1s^−1"
>>> result("CNC(=O)Oc1ccccc1C(C)C")
"2.758 ± 0.048 10^12 M^−1s^−1"
>>> result("CNC(=O)Oc1cc(C)cc(C)c1 [XMC, 3,5-xylyl methylcarbamate]")
"4.362 ± 0.151 10^12 M^−1s^−1"
>>> result("CNC(=O)Oc1cccc(C)c1")
"3.415 ± 0.159 10^12 M^−1s^−1"
>>> result("CNC(=O)ON=C(C)SC")
"4.025 ± 0.136 10^12 M^−1s^−1"
>>> result("CNC(=O)Oc1ccccc1OC(C)C")
"4.353 ± 0.121 10^12 M^−1s^−1"
>>> result("CCSCc1ccccc1OC(=O)NC")
"3.301 ± 0.074 10^12 M^−1s^−1"
>>> result("CNC(=O)O/N=C(\\C)C(C)S(C)(=O)=O (centres unmarked)")
"4.798 ± 0.112 10^12 M^−1s^−1"
>>> result("CNC(=O)Oc1cccc2c1OC(C)(C)C2")
"7.239 ± 0.082 10^12 M^−1s^−1"
>>> result("CNC(=O)O/N=C(\\CS(C)(=O)=O)C(C)(C)C")
"4.102 ± 0.034 10^12 M^−1s^−1"
>>> result("CNC(=O)O/N=C(\\C[S+](C)[O-])C(C)(C)C (centres unmarked) [Thiofanox-sulfoxide]")
"4.237 ± 0.067 10^12 M^−1s^−1"
>>> result("CNC(=O)Oc1ccc(N(C)C)c(C)c1")
"3.409 ± 0.059 10^12 M^−1s^−1"
